- ASSAY_COMMENT: in vivo
- PROTOCOL_CONDITIONS: Sprague Dawley, rat, plasma, intravenous, 10 mg DTX equivalent/kg

| SMI | UNIT_TAG | Km |
| --- | --- | --- |
| CC(=O)O[C@@]12CO[C@@H]1C[C@H](O)[C@@]1(C)C(=O)[C@H](O)C3=C(C)[C@@H](OC(=O)[C@H](O)[C@@H](NC(=O)OC(C)(C)C)c4ccccc4)C[C@@](O)([C@@H](OC(=O)c4ccccc4)[C@H]21)C3(C)C | µg/mL | 0.124 |

---

- ASSAY_COMMENT: in vivo
- PROTOCOL_CONDITIONS: Sprague Dawley, rat, plasma and bile, intravenous, 10 mg DTX equivalent/kg

| SMI | clearance |
| --- | --- |
| CC(=O)O[C@@]12CO[C@@H]1C[C@H](O)[C@@]1(C)C(=O)[C@H](O)C3=C(C)[C@@H](OC(=O)[C@H](O)[C@@H](NC(=O)OC(C)(C)C)c4ccccc4)C[C@@](O)([C@@H](OC(=O)c4ccccc4)[C@H]21)C3(C)C | 3.53 mL/min |
